# Test system: MES-induced seizures
# procedure_details: Test 2: MES, rats p.o.
# Format: in vivo
# experimental_parameters: 30 mg/kg, 4.00 h
test_readout: MES (number of animal protected/number of animal tested)

{"columns": ["compound", "target_under_test", "result"],
 "data": [
  ["Nc1nc(NC(=O)OCCSSCCOC(=O)NCC2(CC(=O)O)CCCCC2)nnc1-c1cccc(Cl)c1Cl", "MES-induced seizures", "4/4"],
  ["Cl.Nc1nc(NC(=O)OCCSSCCNC(=O)c2cccnc2)nnc1-c1cccc(Cl)c1Cl", "MES-induced seizures", "2/4"],
  ["CS(=O)(=O)NC(=O)OCCSSCCOC(=O)Nc1nnc(-c2cccc(Cl)c2Cl)c(N)n1", "MES-induced seizures", "4/4"],
  ["Nc1nc(NC(=O)OCCSSCCOC(=O)c2cccnc2)nnc1-c1cccc(Cl)c1Cl", "MES-induced seizures", "4/4"],
  ["CCOC(=O)CC1(CNC(=O)OCCSSCCOC(=O)Nc2nnc(-c3cccc(Cl)c3Cl)c(N)n2)CCCCC1", "MES-induced seizures", "3/4"]
]}

###

# Tested on: MES-induced seizures
# procedure_details: Test 1: Maximal Electroshock Test (MES), mice i.p.
# Assay type: in vivo
# experimental_parameters: 300 mg/kg (+), 4.0 h
test_readout: MES (number of animal protected/number of animal tested)

{"columns": ["compound", "result"],
 "data": [
  ["Nc1nc(NC(=O)OCCSSCCOC(=O)NCC2(CC(=O)O)CCCCC2)nnc1-c1cccc(Cl)c1Cl", "1/1"],
  ["Cl.Nc1nc(NC(=O)OCCSSCCNC(=O)c2cccnc2)nnc1-c1cccc(Cl)c1Cl", "1/1"],
  ["CS(=O)(=O)NC(=O)OCCSSCCOC(=O)Nc1nnc(-c2cccc(Cl)c2Cl)c(N)n1", "1/1"],
  ["CCOC(=O)CC1(CNC(=O)OCCSSCCOC(=O)Nc2nnc(-c3cccc(Cl)c3Cl)c(N)n2)CCCCC1", "1/1"],
  ["CCCC(CCC)C(=O)OCCSSCCOC(=O)Nc1nnc(-c2cccc(Cl)c2Cl)c(N)n1", "1/3"]
]}

###

Item-by-item account of Rotorod Toxicity (number of animals exhibiting toxicity/number of animals tested)
# System: minimal muscular or neurological impairment
# procedure_details: Test 1: Acute toxicity, minimal motor impairment (rotorod), mice i.p.
# Assay type: in vivo
# experimental_parameters: 300 mg/kg (+), 0.5 h
test_readout: Rotorod Toxicity (number of animals exhibiting toxicity/number of animals tested)

{"columns": ["compound", "result"],
 "data": [
  ["CCOC(=O)CC1(CNC(=O)OCCSSCCO[N+](=O)[O-])CCCCC1", "4/4"],
  ["Nc1nc(NC(=O)OCCSSCCOC(=O)NCC2(CC(=O)O)CCCCC2)nnc1-c1cccc(Cl)c1Cl", "1/4"],
  ["CCOC(=O)CC1(CNC(=O)OCCSSCCOC(=O)NC(=O)[C@H](CC)N2CCCC2=O)CCCCC1", "4/4"],
  ["CCOC(=O)CC1(CNC(=O)OCCSSCC(=O)OC)CCCCC1", "3/4"]
]}
